The origin of these recorded values is paper PMC12040169.

- ASSAY DETAILS: in vitro
- TEST SETTINGS: human, hela cells, % viability
EXPERIMENTAL ENDPOINT: viability at 28.5 h, 10 µM (%)

- O=C(O)C1CC(C(=O)O)C(C(=O)O)CC1C(=O)O (centres unmarked) [CBK261332]: 89.4
- CC(OC(=O)c1ccc(O)cc1)C(=O)Nc1ccc(Cl)c(Cl)c1 (centres unmarked) [CBK264281]: 96.4
- COc1cc(CN2CCN(C/C=C/c3ccccc3)CC2)cc(I)c1O [CBK261882]: 91.7
- COc1cccc(CNc2ccc(C3c4ccsc4CCN3C(C)=O)cc2)c1 (centres unmarked) [CBK286443]: 109
- O=C(O)Cc1ccc(NC(=O)c2cccc(NC(=O)c3ccco3)c2)cc1 [CBK268606]: 96.7
- Cn1cc(C2CCCCN2C(=O)c2cccc(C#N)c2)cn1 (centres unmarked) [CBK304611]: 87.9
- O=C(O)C1C2CCC(O2)C1C(=O)Nc1ccc(S(=O)(=O)N2CCc3ccccc32)cc1 (centres unmarked) [CBK268137]: 93.1
- CN(C)CCNC(=O)c1cc(-c2ccc(Cl)cc2)on1 [CBK116711T]: 89.7
- O=C(O)c1ccc(N2N=C(c3ccccc3)/C(=C\c3cccc([N+](=O)[O-])c3O)C2=O)cc1 [CBK265615]: 102
- Nc1cccc(Sc2ncccn2)c1 [CBK085844]: 93.4
- CCn1c2ccccc2n2c(SCC(=O)O)nnc12 [CBK266869]: 91.4
- O=C(Nc1ccc(Cl)c(Cl)c1)Nc1ccccc1C(=O)O [CBK263344]: 82
- Cc1cc(NC(=O)c2c(F)cccc2F)nc2c1c(=O)oc1ccccc12 [CBK291115]: 110
- Cc1nc2ccc(C(=O)NC3CCN(Cc4ccccc4)CC3)cn2c1N(C)C(=O)c1cccs1 [CBK146529]: 99.9
- COC(=O)c1ccc2c(=O)n(CC(C)O)c(SC)nc2c1 (centres unmarked) [CBK305018]: 88
- CN(C)c1ncccc1OC1CCN(c2ccnc(C3CC3)n2)C1 (centres unmarked) [CBK306182]: 56.3
- CCOc1ccc(S(=O)(=O)N2CCCN(Cc3c[nH]c(C)n3)CC2)c2cccnc12 [CBK063031]: 101
- C=CCSc1nnc(-c2ccccc2NC(=O)CC)c(O)n1 [CBK266411]: 115
- Cc1cc(N2CCN(Cc3nc(C(C)(C)C)no3)CC2)nc(C(C)C)n1 [CBK305333]: 96.3
- c1ccc(-c2cn3ccnc3c(N3CCN(c4ccncc4)CC3)n2)cc1 [CBK066177]: 110
- O=C(O)c1cc(NC(=O)c2ccc(Oc3ccc([N+](=O)[O-])cc3)cc2)cc(C(=O)O)c1 [CBK261188]: 88.6
- COc1ccc(CNC2CCCc3c2cnn3C)c(OC)c1 (centres unmarked) [CBK304875]: 103
- COc1ccc(COC(=O)C2CC(=O)N(Cc3ccc(C)cc3)C2)cc1 (centres unmarked) [CBK296624]: 89
- CCC1c2ccsc2CCN1CC(O)COCc1ccco1 (centres unmarked) [CBK303992]: 97.3
- CCN1CCN(C(=O)C2CCN(S(=O)(=O)c3ccc(Br)cc3)CC2)CC1 [CBK266881]: 103
- COc1ccc(-n2ncc(-c3cccc(C(F)(F)F)c3)n2)cn1 [CBK112678]: 95.8
- CSc1ncc(Cl)c(C(=O)Nc2ccc(S(=O)(=O)N3CCC(Cc4ccccc4)CC3)cc2)n1 [CBK268870]: 96.3
- O=C(NC1(C(F)(F)F)NC(=O)N(CCc2ccccc2)C1=O)c1ccco1 (centres unmarked) [CBK267482]: 89.2
- O=C(O)CCc1ccc(-c2ccc(F)cc2)n1Cc1ccco1 [CBK265953]: 83.9
- CN(C)CCCn1cnc2c1c(=O)[nH]c(=O)n2C [CBK287913]: 92.2
- O=C(O)c1cccc2c1C(=O)N(Cc1ccccc1F)C2 [CBK291172]: 86.8
- Cc1ccc(C(=O)N2CCN(S(=O)(=O)c3sc(C(=O)O)c(C)c3C(=O)O)CC2)s1 [CBK297150]: 84.8
- CCNc1cccnc1N1CCN(C(=O)CCC(=O)c2ccc(NS(C)(=O)=O)cc2)CC1 [CBK010701]: 98.2
- Cc1cc(N2CCN(C(=O)CCc3nccs3)CC2)nc(C(C)C)n1 [CBK304778]: 98.8
- O=C(Nc1nc2ccc(Br)cc2s1)C1CC2CCC1C2 (centres unmarked) [CBK026397]: 88.8
- COc1cccc(N2C(=O)N[C@@H]3CCN(C(=O)c4cccs4)[C@@H]3C2=O)c1 [CBK289279]: 82.3
- CS(=O)(=O)N(CC(=O)Nc1ccc(S(=O)(=O)N2CCCC2)cc1)c1ccc2c(c1)OCO2 [CBK268995]: 97.7
- O=C(NCc1ccccc1)c1ccc(NCc2ccccc2)c([N+](=O)[O-])c1 [CBK074547]: 92.9
